Numbers sourced from patent US5763404A.

- Tested on: anaesthesized rats
- method-description: wheal test, intradermal injection
- Type: in vivo, rat
- settings: 10 ug peptide intradermally
- Protocol: The antiovulatory activity, AOA, in rats was determined as described by Humphries et al. (12). Antiovulation assays were performed by counting, on estrus, the number of ova shed by 4-day cycling rats after a single sc injection of the LH-RH analogue in corn oil was administered between 12 and 12:30 p.m. on […]. The control rats received 0.3 mL of the vehicle. […]
Starred links: 1 amine or outer side, 2 acyl side, 3 side chain; linkers in the order of their positions; H or OH if unused. Non-standard residues stand in square brackets, D forms with d. Residues, ends and D or L forms follow the SMILES beside them. *: point of attachment. dAla(cis-4-NHCOPyz-cHex) = N[C@H](C[C@H]1CC[C@@H](NC(=O)c2cnccn2)CC1)C(=O)O; X2 = O=C(N[C@H]1CC[C@@H](C[C@H](N[*:1])C(=O)[*:2])CC1)c1cnccn1; dPhe(4-Cl) = N[C@H](Cc1ccc(Cl)cc1)C(=O)O; X10 = O=C([C@@H](Cc1cnccn1)N[*:1])[*:2]; d2Nal = N[C@H](Cc1ccc2ccccc2c1)C(=O)O; X11 = O=C([C@H](N[*:1])c1ccsc1)[*:2]; Lys(iPr) = CC(C)NCCCC[C@H](N)C(=O)O; Orn(iPr) = CC(C)NCCC[C@H](N)C(=O)O; aIle = CC[C@@H](C)[C@H](N)C(=O)O; d3Pal = N[C@H](Cc1cccnc1)C(=O)O; Picolinoyl = O=C(c1ccccn1)*; Abu = CC[C@H](N)C(=O)O
Listed below: Wheal Area values for each entry.
The response must be a number in mm^2 /10 μg with no trailing unit.

| molecule | unit-text | Wheal Area |
| --- | --- | --- |
| CC(=O)N[C@H](Cc1ccc2ccccc2c1)C(=O)N[C@H](Cc1ccc(Cl)cc1)C(=O)N[C@H](Cc1cccnc1)C(=O)N[C@@H](CO)C(=O)N[C@@H](CCCCNC(=O)c1ccccn1)C(=O)N[C@H](C[C@H]1CC[C@@H](NC(=O)c2cnccn2)CC1)C(=O)N[C@@H](CC(C)C)C(=O)N[C@@H](CCCNC(C)C)C(=O)N1CCC[C@H]1C(=O)N[C@H](C)C(N)=O [IBR 26181] (Ac-[d2Nal][dPhe(4-Cl)][d3Pal]SK(Picolinoyl)[dAla(cis-4-NHCOPyz-cHex)]L[Orn(iPr)]P[dA]-NH2) | mm^2 /10 μg | 101.6 |
| CC[C@@H](C)[C@H](NC(=O)[C@@H](CCCCNC(=O)c1ccccn1)NC(=O)[C@H](CCCCNC(=O)c1ccccn1)NC(=O)[C@H](CO)NC(=O)[C@@H](Cc1cccnc1)NC(=O)[C@@H](Cc1ccc(Cl)cc1)NC(=O)[C@@H](Cc1ccc2ccccc2c1)NC(C)=O)C(=O)N[C@@H](CCCNC(C)C)C(=O)N1CCC[C@H]1C(=O)N[C@H](C)C(N)=O [compound 26178] (Ac-[d2Nal][dPhe(4-Cl)][d3Pal]SK(Picolinoyl)[dK](Picolinoyl)[aIle][Orn(iPr)]P[dA]-NH2) | mm^2 /10 μg | 78.6 |
| CC(=O)N[C@H](Cc1ccc2ccccc2c1)C(=O)N[C@H](Cc1ccc(Cl)cc1)C(=O)N[C@H](Cc1cccnc1)C(=O)N[C@@H](CO)C(=O)N[C@@H](C[C@H]1CC[C@@H](NC(=O)c2cnccn2)CC1)C(=O)N[C@H](Cc1cnccn1)C(=O)N[C@@H](CC(C)C)C(=O)N[C@@H](CCCNC(=N)N)C(=O)N1CCC[C@H]1C(=O)N[C@H](C)C(N)=O [compound 26417] (Ac-[d2Nal][dPhe(4-Cl)][d3Pal]S[X2][X10]LRP[dA]-NH2) | mm^2 /10 μg | 133.2 |

Kindly note: anaesthesized rats, CC(=O)N[C@H](Cc1ccc2ccccc2c1)C(=O)N[C@H](Cc1ccc(Cl)cc1)C(=O)N[C@@H](C(=O)N[C@@H](CO)C(=O)N[C@@H](CCCCNC(=O)c1ccccn1)C(=O)N[C@H](C[C@H]1CC[C@@H](NC(=O)c2cnccn2)CC1)C(=O)N[C@@H](CC(C)C)C(=O)N[C@@H](CCCCNC(C)C)C(=O)N1CCC[C@H]1C(=O)N[C@H](C)C(N)=O)c1ccsc1 [compound 26349] (Ac-[d2Nal][dPhe(4-Cl)][X11]SK(Picolinoyl)[dAla(cis-4-NHCOPyz-cHex)]L[Lys(iPr)]P[dA]-NH2) , Wheal Area value reported: 84.6

Kindly note: anaesthesized rats, CC[C@H](NC(=O)[C@@H](CCCCNC(=O)c1ccccn1)NC(=O)[C@H](CCCCNC(=O)c1ccccn1)NC(=O)[C@H](CO)NC(=O)[C@@H](Cc1cccnc1)NC(=O)[C@@H](Cc1ccc(Cl)cc1)NC(=O)[C@@H](Cc1ccc2ccccc2c1)NC(C)=O)C(=O)N[C@@H](CCCNC(C)C)C(=O)N1CCC[C@H]1C(=O)N[C@H](C)C(N)=O [compound 26179] (Ac-[d2Nal][dPhe(4-Cl)][d3Pal]SK(Picolinoyl)[dK](Picolinoyl)[Abu][Orn(iPr)]P[dA]-NH2) , Wheal Area value reported: 101.5

* * *

- System: anaesthesized rats
- method-description: wheal test, intradermal injection
- Assay type: in vivo, rat
- settings: Table I; 10 ug peptide intradermally
Non-standard residues stand in square brackets, D forms with d. Residues, ends and D or L forms follow the SMILES beside them. *: point of attachment. dPhe(3,4-Cl2) = N[C@H](Cc1ccc(Cl)c(Cl)c1)C(=O)O; dPhe(4-Cl) = N[C@H](Cc1ccc(Cl)cc1)C(=O)O; d2Nal = N[C@H](Cc1ccc2ccccc2c1)C(=O)O; Lys(iPr) = CC(C)NCCCC[C@H](N)C(=O)O; d3Pal = N[C@H](Cc1cccnc1)C(=O)O; Nicotinoyl = O=C(c1cccnc1)*; Picolinoyl = O=C(c1ccccn1)*; Bz = O=C(c1ccccc1)*
readout: Wheal (mm^2 /10)
The response must be a number in mm^2 /10 with no trailing unit.

Below are worked cases with known answers.
| compound | target-under-test | unit-text | Wheal |
| --- | --- | --- | --- |
| CC(=O)N[C@H](Cc1ccc2ccccc2c1)C(=O)N[C@H](Cc1ccc(Cl)cc1)C(=O)N[C@H](Cc1cccnc1)C(=O)N[C@@H](CO)C(=O)N[C@@H](CCCCNC(=O)c1cccnc1)C(=O)N[C@H](CCCCNC(=O)c1ccccc1)C(=O)N[C@@H](CC(C)C)C(=O)N[C@@H](CCCCNC(C)C)C(=O)N1CCC[C@H]1C(=O)N[C@H](C)C(N)=O [compound 25332] (Ac-[d2Nal][dPhe(4-Cl)][d3Pal]SK(Nicotinoyl)[dK](Bz)L[Lys(iPr)]P[dA]-NH2) | anaesthesized rats | mm^2 /10 | 119.6 |
| CC(=O)N[C@H](Cc1ccc2ccccc2c1)C(=O)N[C@H](Cc1ccc(Cl)cc1)C(=O)N[C@H](Cc1cccnc1)C(=O)N[C@@H](CO)C(=O)N[C@@H](CCCCNC(=O)c1cccnc1)C(=O)N[C@H](Cc1c[nH]cn1)C(=O)N[C@@H](CC(C)C)C(=O)N[C@@H](CCCNC(=N)N)C(=O)N1CCC[C@H]1C(=O)N[C@H](C)C(N)=O [compound 24544] (Ac-[d2Nal][dPhe(4-Cl)][d3Pal]SK(Nicotinoyl)[dH]LRP[dA]-NH2) | anaesthesized rats | mm^2 /10 | 146.7 |
| CC(=O)N[C@H](Cc1ccc2ccccc2c1)C(=O)N[C@H](Cc1ccc(Cl)cc1)C(=O)N[C@H](Cc1cccnc1)C(=O)N[C@@H](CO)C(=O)N[C@@H](Cc1ccc(O)cc1)C(=O)N[C@H](CCCCNC(=O)c1cccnc1)C(=O)N[C@@H](CC(C)C)C(=O)N[C@@H](CCCNC(=N)N)C(=O)N1CCC[C@H]1C(=O)N[C@H](C)C(N)=O [compound 22396] (Ac-[d2Nal][dPhe(4-Cl)][d3Pal]SY[dK](Nicotinoyl)LRP[dA]-NH2) | anaesthesized rats | mm^2 /10 | 85 |
| CC(=O)N[C@H](Cc1ccc2ccccc2c1)C(=O)N[C@H](Cc1ccc(Cl)cc1)C(=O)N[C@H](Cc1cccnc1)C(=O)N[C@@H](CO)C(=O)N[C@@H](CCCCNC(=O)c1cccnc1)C(=O)N[C@H](CCCCNC(=O)c1ccccn1)C(=O)N[C@@H](CC(C)C)C(=O)N[C@@H](CCCCNC(C)C)C(=O)N1CCC[C@H]1C(=O)N[C@H](C)C(N)=O [compound 25589] (Ac-[d2Nal][dPhe(4-Cl)][d3Pal]SK(Nicotinoyl)[dK](Picolinoyl)L[Lys(iPr)]P[dA]-NH2) | anaesthesized rats | mm^2 /10 | 120 |

GET /value?item= CC(=O)N[C@H](Cc1ccc(Cl)c(Cl)c1)C(=O)N[C@H](Cc1ccc(Cl)cc1)C(=O)N[C@H](Cc1cccnc1)C(=O)N[C@@H](CO)C(=O)N[C@@H](Cc1ccc(O)cc1)C(=O)N[C@H](CCCCNC(=O)c1cccnc1)C(=O)N[C@@H](CC(C)C)C(=O)N[C@@H](CCCCNC(C)C)C(=O)N1CCC[C@H]1C(=O)N[C@H](C)C(N)=O [compound 25338] (Ac-[dPhe(3,4-Cl2)][dPhe(4-Cl)][d3Pal]SY[dK](Nicotinoyl)L[Lys(iPr)]P[dA]-NH2) &field=Wheal returns 103.9
